Test system: CP215
procedure_summary: qHTS profiling for inhibitors of Plasmodium falciparum proliferation (AID 504749); further: nearly all actives have a fitted effect of over 60% in size
condition_parameters: P. falciparum in erythrocytes, SYBR Green DNA, 72 h; series mostly up to 28.7 µM
Records with an inconclusive call do not appear. Calls of active or inactive are those of the source. The call rests on the fitted dose curve; in most records, active means well fitted inhibition curve with a large enough effect; inconclusive means small, poorly fitted or top-dose-only effect; inactive means flat fitted curve, though single readings scatter.
Respond only with the outcome that fits, drawn from Y for active, N for inactive

Query: recorded result category for `C[C@@]12C(=O)OC(=O)[C@]1(C)[C@H]1CC[C@@H]2O1` in this test
Reply: Y

Query: Short answer needed: outcome of this test for CC(C)C[C@H]1C(=O)N2CCCC2[C@]2(O)O[C@](NC(=O)[C@@H]3C=C4c5cccc6[nH]c(Br)c(c56)C[C@H]4N(C)C3)(C(C)C)C(=O)N12 (stereo partly specified) ?
Reply: Y

Query: Just curious, what result did CN=C(N)NCCCC(N)C(=O)O (stereo unspecified) get here?
Reply: N

Query: Just curious, what result did CN1C(=O)CCC1c1cccnc1 (stereo unspecified) get here?
Reply: N

Query: For `CC(/C=C1\SC(=S)N(CC(=O)O)C1=O)=C\c1ccccc1` , what call appears in the results of this test?
Reply: N

Query: Hello, I am checking results. What call was entered for `COc1ccc(CCNC[C@@H](O)c2ccc(O)cc2)cc1OC` ?
Reply: N

---

procedure_summary: HPAF-II 12hr Apoptosis Induction qHTS against the NCATS CANVASS Library (AID 1347358); further: 0% is about no effect
condition_parameters: HPAF-II caspase-3/7 Caspase-Glo luminescence; series mostly up to 46.1 µM
Results filed as inconclusive are left out. Calls of active or inactive are those of the source. The call rests on the fitted dose curve; in most records, active means well fitted curve in the direction sought with a large enough effect; inconclusive means small, poorly fitted or top-dose-only effect, or another doubt; inactive means no such curve, though single readings can be large or run the other way.
experimental_endpoint: caspase activation

>>> measured_value("C=C(Cl)[C@](Cl)(CBr)CC[C@@H](Br)C(C)(C)Cl")
"inactive"
>>> measured_value("C[C@]12CCC[C@](C)(C(=O)O)[C@@H]1CC[C@@]1(C)c3cocc3CC[C@H]21")
"inactive"
>>> measured_value("CC(=O)Oc1cc2c(c(OC(C)=O)c1C1CCc3cc(Cl)c(Cl)n31)C(=O)n1c-2cc(Cl)c1Cl (stereo not given)")
"inactive"
>>> measured_value("COc1c(O)cc(O)c2c(=O)cc(-c3ccccc3)oc12")
"inactive"

Would you kindly look at the next entry?
Looking up `CCC(=O)N[C@@H](C[C@H](C)C(Cl)(Cl)Cl)C(=O)N1C(=O)C=C(OC)[C@@H]1CC(C)C` , I see its caspase activation listed as inactive

---

procedure_summary: Stat Signaling Pathway (AID 446);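 further: ME-180 cervical cancer cells given 40 pM IL-6 alongside compound; SIE-controlled beta-lactamase reporter measured as 460/530 nm FRET emission ratio; on the % scale 0 is the no-effect control and ±100 the full control effect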
condition_parameters: ME-180 (cervical carcinoma) SIE beta-lactamase reporter, IL-6 stimulated, 5 h; at 7.69 µM (top of the series) unless noted
Records with an inconclusive call do not appear.
experimental_endpoint: activity, negative = inhibition (%)
Answer with a number only, understood to be in %.

Looking up `Cc1noc(C)c1C(=O)N1CCC[C@@]2(CCN(C(=O)Nc3cccc(F)c3)C2)C1` , I found its activity, negative = inhibition recorded as 8.15

// sample `CN1CCN(c2ncc3ncc(=O)n(C4CC4)c3n2)CC1` , its activity, negative = inhibition was -9.77

The recorded activity, negative = inhibition for `COc1ccc(-n2c(=O)c(-c3cccs3)nc3cnc(OC)nc32)cc1` is -2.82

Per the record, `CNc1cc(-c2ccccc2CN(C)C)ncn1` has activity, negative = inhibition of -3.02

Per the records, this compound ( `O=C(c1cccc(F)c1)N1CCC[C@@]2(CCN(Cc3nccs3)C2)C1` ) has activity, negative = inhibition equal to -0.114

# activity, negative = inhibition (compound: `O=C(Nc1cccc(F)c1)N1CCCC2(CCNCC2)C1` ) is -5.47

// activity, negative = inhibition lookup, compound = `CC(C)NC(=O)N1CCC2(CC1)CCN(S(C)(=O)=O)CC2` , result: 4.06

get_value(item= `Cc1nc2cnc(N3CCNCC3)nc2n(Cc2cccs2)c1=O` , readout=activity, negative = inhibition) returns 3.44

activity, negative = inhibition reading for `COc1ncc2nc(-c3cccs3)c(=O)n(-c3ccccc3)c2n1` : 17.5

Recorded activity, negative = inhibition (compound `COc1ccc2[nH]cc(CCNc3ncncc3-c3c(C)noc3C)c2c1` ): -10.2

Looking up `CCNc1ncc2ncc(=O)n(CCOC)c2n1` , I see its activity, negative = inhibition listed as -26.5
